Just for reference, patent EP4471048A1 is where these values come from.

Molecular target: T1, Nluc-IL23R fusion protein (human, UniProt Q5VWK5 22-629)
T1 construct: range 22-629; Stably expressed in HEK293 cells; also called hIL-23R; human IL-23R; not shown: Nanoluc protein (N1371, Promega) at the N-terminus, after a secretion signal
T1 sequence (looked up): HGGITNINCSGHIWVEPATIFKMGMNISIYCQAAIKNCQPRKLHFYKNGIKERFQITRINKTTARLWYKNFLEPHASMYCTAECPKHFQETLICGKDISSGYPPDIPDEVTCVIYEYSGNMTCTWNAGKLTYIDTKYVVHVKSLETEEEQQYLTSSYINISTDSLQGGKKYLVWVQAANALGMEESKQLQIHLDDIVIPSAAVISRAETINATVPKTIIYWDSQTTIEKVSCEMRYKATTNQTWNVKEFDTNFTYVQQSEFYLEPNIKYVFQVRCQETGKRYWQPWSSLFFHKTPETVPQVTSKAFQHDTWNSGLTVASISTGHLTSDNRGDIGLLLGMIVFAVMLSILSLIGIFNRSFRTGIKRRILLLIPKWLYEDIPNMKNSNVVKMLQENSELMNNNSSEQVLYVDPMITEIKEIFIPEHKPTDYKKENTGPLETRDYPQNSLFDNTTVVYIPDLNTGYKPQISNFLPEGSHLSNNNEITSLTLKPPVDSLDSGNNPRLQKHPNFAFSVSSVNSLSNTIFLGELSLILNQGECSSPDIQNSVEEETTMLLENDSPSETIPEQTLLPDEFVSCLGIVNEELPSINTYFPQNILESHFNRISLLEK
Test: BRET competition vs TAMRA-labelled peptide, Nluc-IL23R membranes
*1 amine or outer side, *2 acyl side, *3 side chain or, on linkers, in order; H or OH if unused. Bridges are numbered along the chain shown (N, C = ends). Primed or numbered codes have the meaning given here. [ ]: non-standard residue; d: D form. 4‑Aminomethyl‑phenylacetyl = 4-aminomethyl-phenylacetyl unit, its amine closes the lactam, O=C(Cc1ccc(CN[*:1])cc1)[*:2]; 1,3‑dibromopropan‑2‑one″ = linker forming 1,3-dithio-propan-2-one bridge -SCH2C(=O)CH2S- between two Cys; Q(pyrrolidin) = modified Gln, O=C(CC[C@H](N[*:1])C(=O)[*:2])N1CCCC1; Phe(4-Me) = Cc1ccc(C[C@H](N)C(=O)O)cc1; 2Nal = N[C@@H](Cc1ccc2ccccc2c1)C(=O)O; AEF = NCCOc1ccc(C[C@H](N)C(=O)O)cc1; 3Pal = N[C@@H](Cc1cccnc1)C(=O)O; αMeL = CC(C)C[C@](C)(N)C(=O)O; Dab = NCC[C@H](N)C(=O)O; Aib = CC(C)(N)C(=O)O
experimental-endpoint: % displacement (%)
Give bare numbers, in %.

The following binders have reported results that may help.
KIVWQE[Phe(4-Me)][2Nal][Aib]E[Dab][3Pal]-NH2 (lactam 1-10, N-6; SMILES CC[C@H](C)[C@@H]1NC(=O)[C@@H]2CCCCNC(=O)CC[C@@H](C(=O)N[C@@H](CCN)C(=O)N[C@@H](Cc3cccnc3)C(N)=O)NC(=O)C(C)(C)NC(=O)[C@H](Cc3ccc4ccccc4c3)NC(=O)[C@H](Cc3ccc(C)cc3)NC(=O)[C@H](CCC(=O)N2)NC(=O)[C@H](CCC(N)=O)NC(=O)[C@H](Cc2c[nH]c3ccccc23)NC(=O)[C@H](C(C)C)NC1=O) [Compound 17] ... 107
[4‑Aminomethyl‑phenylacetyl]SEW[Q(pyrrolidin)][Dab][AEF][2Nal][αMeL]E[Dab]-NH2 (lactam N-10; bridge 3-6; also: (2c) bridge type not defined) [Ref 146] ... 105

Request: For the binder [4‑Aminomethyl‑phenylacetyl]SCWQC[AEF][2Nal][αMeL]ER-NH2 (lactam N-10; linker 3-6 via 1,3‑dibromopropan‑2‑one″) [Ref 52] , what % displacement is on record?
Response: 100
